Protocol notes: chemical genetic growth profiling, strain panel (AID 1159580);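 note: tested at 20 µM; growth read once vehicle control cultures reached saturation at 30 °C; 1 = growth at the plate median or of vehicle wells; lower values mean less growth of the strain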
Stated conditions: S. cerevisiae deletion strains, growth OD, locus YNL153C, strain GIM3
The campaign covered roughly 5,500 compounds. About 2,000 (36%) were called active. Roughly 18% stayed inconclusive and do not appear here. Cut-off read from the data, not from the text of the source: active = normalized growth mostly below about 0.91 (no sharp cut-off); inconclusive = no clear call, values can overlap the other calls; inactive = mostly above about 0.92. Some of the results follow.
Your response should consist of one outcome taken from 1 (yes) for active, 0 (no) for inactive

>  <Molecule>
CCOC(=O)c1cc(-c2ccc(N)cc2)oc1C

>  <Label class>
1 (yes)

$$$$

In: Lab log entry: CC12CCCC(O)(C1)C1CC(C)(C)C1CC2 (configuration not stated) — outcome as called in the assay?
Out: 0 (no)

In: Lab log entry: CC1CC2C(C(O)CC3(C)C2CCC3(O)C(=O)COC(=O)CCC(=O)O)C2(C)C=CC(=O)C=C12 (configuration not stated) — outcome as called in the assay?
Out: 0 (no)

Each recorded value in this set is attributed to PubChem BioAssay AID1159580.
